Measurement Protocol: reversal of MRP1-mediated doxorubicin resistance, pilot screen, H69AR cells, doxorubicin co-treatment (AID 601)
Condition Parameters: H69AR cells + 2 uM doxorubicin, CellTiter-Glo, 72 h; at 10 µM; hits give high values
Items are presented alongside their recorded differential viability (reversal).
The response must be a number in % with no trailing unit.

N#CCSc1nc(-c2ccccc2)cs1: -0.97
Cc1cc(C)cc(NC(=O)CCNS(=O)(=O)c2ccc3c(c2)oc(=O)n3C)c1: -2.07
Clc1ccccc1OCc1nn2c(-c3ccncc3)nnc2s1: 5.55
CCN(CC)S(=O)(=O)c1cccc(-c2nnc(SCC(N)=O)n2CCc2ccccc2)c1: -9.28
O=C(c1ccco1)N1CCN(/C(=N/S(=O)(=O)c2cccs2)c2ccccc2Cl)CC1: 0.85

What does the data say about its differential viability (reversal)? Entry: CCC(C)NC(=O)CC1Oc2ccc(C)cc2NC1=O (configuration not stated)
-2.57
